- Test system: Kasumi-3
- procedure.text: IncuCyte Kinetic Caspase-3/7 Apoptosis Assay
- Type: cell-based
- applied.conditions: Homo sapiens, 72 hr, read-out: Compound 1-induced Apoptosis EC50
observable: EC50 (nM)
# value in nM; strip the unit string

Q: Hi! What's the reported EC50 for O=C1CCC(N2Cc3cc(CNC(=O)C(F)(F)c4ccc(Cl)cc4)ccc3C2=O)C(=O)N1 (stereo not shown) [Compound 1] on Kasumi-3?
Result: 3

====

- Test system: MV-4-11
- procedure.text: IncuCyte Kinetic Caspase-3/7 Apoptosis Assay
- Type: cell-based
- applied.conditions: Homo sapiens, MV4-11, 72 hr, read-out: Compound 1-induced Apoptosis EC50
observable: EC50 (µM)
Enter your answer as a number in µM; do not include the unit.

Q: Consider the compound O=C1CCC(N2Cc3cc(CNC(=O)C(F)(F)c4ccc(Cl)cc4)ccc3C2=O)C(=O)N1 (stereo not shown) and give its measured EC50.
Result: 0.016

Value source: patent US11590117B2
